assay: soluble on expression in E. coli; label from the status in PepcDB or PDB records
parameter.measured: soluble on expression in E. coli

>>> observed("MAHHHHHHMDTRMKDLSFKVVLLGEGRVGKTSLISRYVHNAFDEKEASTVQASMHSSKAVPINDASSAPGAIREVDLALWDTAGQERFHALAPMYYRNADGAIIVYDVTDADTLRKVRTWAKELYAVVGEGKIQLVLCGNKADTPLAEREVSEGEGAAMAAELGASHFFASAKTGQNVAEVFSAMATQVARSREVTGMGGGVAAGGSSGSSGGGAYTGISGRTPSRSRARRGLMVVTEDGEAVTPGRSSPCEGRVYGGITPPRAHRYGSSGTNQPITLSADGSPDAAAAANKSGCC")
"soluble"
>>> observed("MILNPQQRTKLDSRRDDLFYAAPRFVTHVDDFFLARLTDLYRQYLQPQMRVLDLMSSWVSHLPPELSFQEVVGHGMNAAELARNPRLDRYFVQNLNEELALPLEDASFNAVLMAVSVQYLQYPEATFTEIARILKPQGVVIVSFSNRMFFEKAIQAWREGSEGDRVQLVQTYINSTPSLKVIATHLPRLWPWRGFTDPFYAVVGQKQAVLEHHHHHH")
"soluble"
>>> observed("MIVLGIESSCDETGLAIYDYSKKKLIADELYSQVKLHKKYGGVVPELASREHIAKLNLLAKKIFKETGLSFEDIDCIAYTAMPGLVGALMVGATFAKTLGLIHNIDTIAVHHLEGHLLSPLLDHNSNIEYPFVALLVSGGHTQLFEVKEFGEYSLLGESIDDAAGEAFDKTTKLLGMGYPGGVEVANLADQATDKSKYILPRPMKNKPNLDFSFSGLKTAVLNTWYDEQDQSLENKANLCYAFQDAAIDVLVSKCAKALQKTKNTRLVISGGVSANKLLRHQLDLLAKNRGYQIFFPPMKYCTDNGAMIALAGAYRYVNGFKDSNLEINVKARSPL")
"soluble"
>>> observed("MVIMAGKAVRTEQVSATRQLILTTAERLFAEHGVYAVSNRQVSEAAGQGNNAAVGYHFGTKTDLVRAIAQRHSERVEELRARQLAALGDSPDLRDWVDCLVRPQFDHLAALGSPTWYARFCAQVMTDPALRQIMTEESRASVSLRAIIVGRNRCMPALPDEVRAERGDMARHLIVHTAEERERALAENRPTPRASWQDAADGLVDAIVGMWLAPVTPRGGG")
"not soluble"
>>> observed("MQQEALSFLSSSLPSLHHNFPSLSRLRFNNFPALSFKPNTSSSSSSFFKSPDIPSLSSTTTTTTTTETLESSIHEKLIYLDSLGIDFLTLINRHPPLLSTALSAVESVVDYMTTPPINFTLQDFRRLVSMCPELLTSPLTSHTIPVITFLLREVGVDSIFDLRQALRRRPRLLACSVDHQLRPTLYFLQRIGILDPHKHTYLLSCSVDNKLVPRIDYFEKLGFSRRSATAMFKRFPQLFNYSIAENYEPKLKYLMVEMGRDVREVLEFPQYFSFSLENRIKPRHEACAAKGVRFPLPVMLKTNEAGFRDTLEVCCDSSPPLKTSRLVTVQKDS")
"not soluble"

----------
assay: soluble on expression in E. coli; label from the status in PepcDB or PDB records
parameter.measured: soluble on expression in E. coli

>>> observed("GAMGIVGVGIDLVSIPDFAEQVDQPGTVFAETFTPGERRDASDKSSSAARHLAARWAAKEAVIKAWSGSRFAQRPVLPEDIHRDIEVVTDMWGRPRVRLTGAIAEYLADVTIHVSLTHEGDTAAAVAILEAP")
"soluble"
>>> observed("MGSDKIHHHHHHMAQGTLYIVSAPSGAGKSSLIQALLKTQPLYDTQVSVSHTTRQPRPGEVHGEHYFFVNHDEFKEMISRDAFLEHAEVFGNYYGTSREAIEQVLATGVDVFLDIDWQGAQQIRQKMPHARSIFILPPSKIELDRRLRGRGQDSEEVIAKRMAQAVAEMSHYAEYDYLIVNDDFDTALTDLKTIIRAERLRMSRQKQRHDALISKLLAD")
"soluble"
>>> observed("MAHHHHHHMMSKPHHATLESIKYTPGSLRLLDQRKLPLETVFDDVLTVEDIWSAIKEMRVRGAPAIAVSAALGIAVATQRKAANGELKSGREVQTFLLTSCDFVMTSRPTAVNLFNCLRDLKAQVDKLDPTKAAAEVAQAFVELAEAVYTNDVAFNEGIMRHGAAHILAAAKAEGRDKVSILTICNTGALATSRYGTALGVVRQLFYDGKLERVYACETRPWNQGARLTVYECVQEDIPCTLICDGAASSLMLNRKIDAVVVGADRICQNGDTANKIGTYNLAVSAKFHGVKLYVAAPTTTLDVKTASGNHVEIEEREPTEITTNLVTKQRVVADGPHLSIWNPVFDITPSELITGGIITEKGVQAPAASAPYYDIASIIAQA")
"soluble"
